Tested on: Canis familiaris
Assay: Mean arterial blood pressure in dog following 1.875 mg/kg i.v. administration.
Format: functional, Canis lupus familiaris
Details: route intravenous
endpoint name: Activity

| molecule | endpoint name | data value |
| --- | --- | --- |
| CC1CC(=O)NN=C1c1ccc2c(c1)N(C1CCCC1)C(=O)C(C)O2 (stereo not drawn) | Activity | -5 |
| CC1(C)Oc2ccc(C3=NNC(=O)CC3)cc2NC1=O | Activity | -6 |
| CN1N=C(c2ccc3c(c2)N(S(C)(=O)=O)CCO3)CCC1=O | Activity | 0 |
| C=CCN1N=C(c2ccc3c(c2)N(S(C)(=O)=O)CCO3)CCC1=O | Activity | 4 |
| CS(=O)(=O)N1CCOc2ccc(C3=NN(c4ccccc4)C(=O)CC3)cc21 | Activity | 9 |
| Cc1cc(C2=NNC(=O)CC2C)c2c(c1)N(C)C(=O)CO2 (stereo not drawn) | Activity | -17 |
| CCCCCN1N=C(c2ccc3c(c2)N(S(C)(=O)=O)CCO3)CCC1=O | Activity | -6 |
| CS(=O)(=O)N1CCOc2ccc(C3=NNC(=O)CC3)cc21 | Activity | -14 |

###

Test system: Canis familiaris
Assay: Myocardial contractile force (CF) in dog after intravenous dose of 0.470 mg/kg
Assay type: functional, Canis lupus familiaris, Myocardium
Conditions: dose 0.47 mg/kg

| compound | target or test system | Activity |
| --- | --- | --- |
| Cc1cc(C2=NNC(=O)CC2)c2c(c1)N(C)C(=O)CO2 | Canis familiaris | 73 |
| CC1CC(=O)NN=C1c1ccc2c(c1)NCCO2 (stereo not given) | Canis familiaris | 149 |
| CC1CC(=O)NN=C1c1ccc2c(c1)NC(=O)C(C)O2 (stereo not given) | Canis familiaris | 157 |
| CC1CC(=O)NN=C1c1ccc2c(c1)N(S(C)(=O)=O)CCO2 (stereo not given) | Canis familiaris | 99 |
| CC(=O)N1CCOc2ccc(C3=NNC(=O)CC3C)cc21 (stereo not given) | Canis familiaris | 135 |

###

Form field: Activity (one value per entry).
System: Canis familiaris
Test: Heart rate (HR) in dog after intravenous dose of 0.075 mg/kg
Format: functional, Canis lupus familiaris
endpoint name: Activity

| compound | endpoint name | data value |
| --- | --- | --- |
| CC1CC(=O)NN=C1c1ccc2c(c1)OCC(=O)N2 (centres undefined) | Activity | 25 |
| CC1CC(=O)NN=C1c1ccc2c(c1)OC(C)(C)C(=O)N2C (centres undefined) | Activity | 19 |
| CC1CC(=O)NN=C1c1ccc2c(c1)OC(C)(C)C(=O)N2 (centres undefined) | Activity | 16 |
| CC1CC(=O)NN=C1c1ccc2c(c1)OC(C)C(=O)N2 (centres undefined) | Activity | 23 |

###

System: Canis familiaris
Test: Mean arterial blood pressure in dog following 1.875 mg/kg i.v. administration.
Format: functional, Canis lupus familiaris
Conditions: route intravenous
Form field: Activity (one value per entry).

| compound | Activity |
| --- | --- |
| O=C1CCC(c2ccc3c(c2)NCCO3)=NN1 | -17 |
| CN1C(=O)C(C)(C)Oc2ccc(C3=NNC(=O)CC3)cc21 | -12 |
| Cc1cc2c(c(C3=NNC(=O)CC3)c1)OCC(=O)N2 | -12 |
| CC(=O)N1CCOc2ccc(C3=NNC(=O)CC3)cc21 | -14 |
| CC1CC(=O)NN=C1c1ccc2c(c1)N(C(C)C)C(=O)C(C)O2 (stereo unspecified) | -16 |
| Cc1cc2c(c(C3=NNC(=O)CC3C)c1)OCC(=O)N2 (stereo unspecified) | -15 |

###

System: Canis familiaris
Experiment: Heart rate in dog following 1.875 mg/kg i.v. administration.
Type: functional, Canis lupus familiaris
Settings: route intravenous

| compound | Activity |
| --- | --- |
| CN1N=C(c2ccc3c(c2)N(S(C)(=O)=O)CCO3)CCC1=O | 12 |
| Cc1cc(C2=NNC(=O)CC2C)c2c(c1)N(C)C(=O)CO2 (stereo unspecified) | 19 |
| CN1C(=O)C(C)(C)Oc2ccc(C3=NNC(=O)CC3)cc21 | 8 |
| CC1(C)Oc2ccc(C3=NNC(=O)CC3)cc2NC1=O | 14 |
| CS(=O)(=O)N1CCOc2ccc(C3=NN(c4ccccc4)C(=O)CC3)cc21 | 6 |
| Cc1cc2c(c(C3=NNC(=O)CC3C)c1)OCC(=O)N2 (stereo unspecified) | 8 |
| CS(=O)(=O)N1CCOc2ccc(C3=NNC(=O)CC3)cc21 | 24 |
| CC1CC(=O)NN=C1c1ccc2c(c1)N(C(C)C)C(=O)C(C)O2 (stereo unspecified) | 8 |
| CC1Oc2ccc(C3=NNC(=O)CC3)cc2NC1=O (stereo unspecified) | 24 |
| O=C1CCC(c2ccc3c(c2)NCCO3)=NN1 | 15 |
| CC1CC(=O)NN=C1c1ccc2c(c1)N(C1CCCC1)C(=O)C(C)O2 (stereo unspecified) | 7 |

###

Test system: Canis familiaris
Test: Heart rate in dog following 1.875 mg/kg i.v. administration.
Type: functional, Canis lupus familiaris
Details: route intravenous
# if value of Activity reaches 10, tag Satisfied; if it stays below, tag Not satisfied

| compound string | label |
| --- | --- |
| O=C1CCC(c2ccc3c(c2)NC(=O)CO3)=NN1 | Not satisfied |
| CC(=O)N1CCOc2ccc(C3=NNC(=O)CC3)cc21 | Satisfied |
| CCCCCN1N=C(c2ccc3c(c2)N(S(C)(=O)=O)CCO3)CCC1=O | Not satisfied |
| Cc1cc2c(c(C3=NNC(=O)CC3)c1)OCC(=O)N2 | Not satisfied |

###

Target: phosphodiesterase fraction III (Canis familiaris)
Test: Inhibition of cardiac phosphodiesterase-3 isolated from canine heart.

| compound | IC50 [µM] |
| --- | --- |
| CC1CC(=O)NN=C1c1ccc2c(c1)NC(=O)CO2 (stereo unspecified) | 2 |
| Cc1cc2c(c(C3=NNC(=O)CC3C)c1)OCC(=O)N2 (stereo unspecified) | 28 |
| CC1CC(=O)NN=C1c1ccc2c(c1)OC(C)C(=O)N2 (stereo unspecified) | 4 |
| O=C1CCC(c2ccc3c(c2)NCCO3)=NN1 | 50 |
| CC1Oc2ccc(C3=NNC(=O)CC3)cc2NC1=O (stereo unspecified) | 14 |
| CC1(C)C(=O)Nc2ccc(C3=NNC(=O)CC3)cc21 | 7 |
